- Experimental Target: GST-Xa-hAAK1 (Homo sapiens (Human))
- Sequence (Q2M2I8 whole entry): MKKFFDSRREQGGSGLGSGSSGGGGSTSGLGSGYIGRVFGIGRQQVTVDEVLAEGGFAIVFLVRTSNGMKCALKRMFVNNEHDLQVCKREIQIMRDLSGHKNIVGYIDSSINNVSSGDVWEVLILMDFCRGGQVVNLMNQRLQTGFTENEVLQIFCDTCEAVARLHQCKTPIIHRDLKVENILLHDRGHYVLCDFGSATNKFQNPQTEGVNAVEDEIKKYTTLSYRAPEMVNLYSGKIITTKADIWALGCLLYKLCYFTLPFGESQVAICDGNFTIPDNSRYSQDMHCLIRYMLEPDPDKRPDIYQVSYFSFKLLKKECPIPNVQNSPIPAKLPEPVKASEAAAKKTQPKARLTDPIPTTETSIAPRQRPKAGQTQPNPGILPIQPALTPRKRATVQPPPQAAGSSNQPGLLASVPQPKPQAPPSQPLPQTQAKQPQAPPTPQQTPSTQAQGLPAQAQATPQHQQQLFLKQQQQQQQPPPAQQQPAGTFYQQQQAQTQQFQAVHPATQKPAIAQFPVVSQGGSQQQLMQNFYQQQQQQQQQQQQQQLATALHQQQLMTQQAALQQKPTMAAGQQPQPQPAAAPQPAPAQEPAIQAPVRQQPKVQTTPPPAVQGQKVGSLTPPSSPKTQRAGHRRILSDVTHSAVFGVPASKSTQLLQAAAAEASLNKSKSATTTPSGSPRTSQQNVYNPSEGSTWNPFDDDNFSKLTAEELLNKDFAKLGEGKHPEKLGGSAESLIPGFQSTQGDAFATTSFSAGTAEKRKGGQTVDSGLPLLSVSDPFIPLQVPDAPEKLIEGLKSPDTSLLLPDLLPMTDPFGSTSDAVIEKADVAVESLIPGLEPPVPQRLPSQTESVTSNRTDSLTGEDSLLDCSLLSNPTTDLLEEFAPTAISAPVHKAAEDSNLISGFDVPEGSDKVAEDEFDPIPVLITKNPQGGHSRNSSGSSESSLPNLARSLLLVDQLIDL
- Method: biochemical
Measurement Type: IC50
Output should be the measured figure followed by the unit it is expressed in.

Some entries whose results are on file:
CN[C@H](CC(C)C)c1nc2cc(-c3ccnc(NC(C)=O)c3)ccc2[nH]1
14 nM
N[C@H](CC1CC1)c1nc2cc(-c3ccncc3)ccc2[nH]1
61 nM

API: the following record is the query input.
Inquiry: Requested read-out: IC50. Entry: COc1cc2nc([C@H](N)CC(C)C)[nH]c2cc1-c1cnco1
Reply text: 12 nM

----------
- Experimental Target: UniProt Q2M2I8
- Method: biochemical
- Assay Conditions: ATP 22 μM; GST-Xa-hAAK1 3.5 nM; room temperature for 3 hours; Caliper LabChip 3000; read-out: AAK1 IC50
Field: IC50. Provide a value for each of the compounds that follow.
Numbers only, in µM.

Provide reported IC50 for each item, in the same order as listed.
1. c1cc(-c2ccc3oc(CC4CCCC4)nc3c2)ccn1
2. CC1CC1c1nc2ccc(-c3ccncc3)cc2[nH]1 (centres unmarked)
3. COCCn1c([C@H](N)CC(C)C)nc2ccc(-c3ccncc3)cc21
4. CC(C)CCc1nc2ccc(-c3ccncc3)cc2[nH]1
5. COc1cnccc1-c1ccc2nc([C@H](N)CC(C)C)n(CC(F)(F)F)c2c1
6. CC(C)CC(C)(N)c1nc2ccc(-c3cnco3)cc2[nH]1 (centres unmarked)
7. COCCn1c([C@H](N)CC(C)C)nc2ccc(-c3cnco3)cc21
8. CC(C)C[C@H](N)c1nc2cc(-c3cnco3)ccc2[nH]1

Reply text:
0.818
0.897
0.531
0.115
0.025
0.158
6.74
0.093

Provide reported IC50 for each item, in the same order as listed.
1. COc1cnccc1-c1ccc2oc(C(N)CC(C)C)nc2c1 (centres unmarked)
2. CC(C)C[C@H](N)c1nc2ccc(-c3ccncc3)cc2[nH]1
3. CC(C)CC(N)c1nc2cc(-c3ccncc3)ccc2o1 (centres unmarked)
4. CC(C)CC(CN)c1nc2cc(-c3cnco3)ccc2[nH]1 (centres unmarked)
5. COc1cnccc1-c1ccc2[nH]c([C@H](N)CC(C)C)nc2c1
6. NC(CCC(F)(F)F)c1nc2ccc(-c3cnco3)cc2[nH]1 (centres unmarked)

Reply text:
1. 0.294
2. 0.053
3. 0.071
4. 0.026
5. 0.093
6. 0.15

Values compiled from patent US10035777B2.
